STUDY SYSTEM: T1, mouse IL-2Rβ (mouse) (UniProt P16297)
T1 sequence (looked up): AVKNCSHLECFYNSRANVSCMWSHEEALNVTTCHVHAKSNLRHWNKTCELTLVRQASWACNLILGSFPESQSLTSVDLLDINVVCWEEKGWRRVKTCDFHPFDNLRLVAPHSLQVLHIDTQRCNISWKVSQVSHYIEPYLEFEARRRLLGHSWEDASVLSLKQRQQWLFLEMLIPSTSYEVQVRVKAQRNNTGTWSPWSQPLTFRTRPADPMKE
TEST: P.E. binding ELISA on coated protein
ENDPOINT: P.E. binding ELISA OD (OD450 nm)

FJ1427_P035MP03E11 (VHH) VHH: EVQLVESGGGLVQAGGSLRLSCVVSGDVFVRYTMAWFRQAPGKEREFVAAVTDSGRTTEYVDSVKGRFTVSRDNAKNTVYLQMNNLEPEDTAVYYCAANTDYFQIRSVDNNAWGQGTQVTVSS	0.05
FJ1427_P035MP03G09 (VHH) VHH: QVQLVESGGGLVQAGGSLRLSCVVSGDVFVRYTMAWFRQAPGKEREFVAVVTDSGRTTEYVDSVKGRFTVSRDNAKNTVYLQMNNLKPEDTAVYYCAANTDYFQIRSVDNNAWGQGTQVTVSS	0.054
FJ1427 P035MP03E05 (VHH) VHH: EVQLVESGGGLVQAGGSLRLSCAVSGVIFWSDVVGWYRQASGKQRELVATINLDDTKHYGEVVKGRFAISRDSHKNAYYLQLNSLKPEDTAVYYCNVRRGSEFYWGQGTQVTVSS	0.049
FJ1427 P035MP03C12 (VHH) VHH: QVQLVESGGGLVQAGGSLRLSCAASGRAFSTYSMGWFRQTPGKEREFVAIISESGGIIDYGDSVKGRFTLSRDNAKNTVSLQMSSLQPEDTAVYYCAAARDWFARTAYQYDYWGQGTQVTVSA	0.047
